Answer each item with its documented Cell viability (% @10 μM).
# System: Tau-BiFC cells
# assay_protocol: Cell viability (cytotoxicity) in tau-BiFC cells, count of stained nuclei
# Assay type: cell-based
# condition_notes: compound 10 μM; Forskolin-only group = 100% cell viability
Expressed in %, but write only the number.

query: Name the recorded Cell viability (% @10 μM) of the compound listed here: N#CC(C#N)=NNc1ccc(OCc2nc3ccccc3s2)cc1 [Compound 129]
result: 106.9

query: Name the recorded Cell viability (% @10 μM) of the compound listed here: N#CC(C#N)=NNc1ccc(NC(=O)c2cnco2)nc1 [Compound 114]
result: 149.5

query: Name the recorded Cell viability (% @10 μM) of the compound listed here: Cc1cnc(NS(=O)(=O)c2ccc(NN=C(C#N)C#N)cc2)cn1 [Compound 67]
result: 108.4

query: Name the recorded Cell viability (% @10 μM) of the compound listed here: COc1ccc(S(=O)(=O)Nc2ccc(NN=C(C#N)C#N)cn2)cc1 [Compound 59]
result: 128.2

query: Name the recorded Cell viability (% @10 μM) of the compound listed here: Cc1cnc(C(=O)Nc2ccc(NN=C(C#N)C#N)cc2)cn1 [Compound 2]
result: 71.5

query: Name the recorded Cell viability (% @10 μM) of the compound listed here: Cc1ccc(COc2ccc(NN=C(C#N)C#N)cc2)cc1 [Compound 119]
result: 112.5

query: Name the recorded Cell viability (% @10 μM) of the compound listed here: Cc1ccc(NC(=O)c2ccc(NN=C(C#N)C#N)c(C)c2)cn1 [Compound 55]
result: 116.1

query: Name the recorded Cell viability (% @10 μM) of the compound listed here: N#CC(C#N)=NNc1ccc(OCc2ccccc2)cc1 [Compound 117]
result: 126.0
